test: Half-life in iv dosed Sprague-Dawley rat; type: ADME, organism-based; conditions: in vivo

>  <molecule>
COc1ccccc1-c1ccc2cnc(Nc3ccc(N4CCN(C)CC4)cc3)nn12

>  <half-life, min>
30

$$$$

====

test: Drug level in human SUP-M2 cells xenografted SCID mouse tumor at 30 mg/kg, po after 24 hrs by LC/MS analysis; format: ADME, organism-based, Neoplasm; set-up: dose 30 mg/kg, route oral; details: read-out: Drug uptake

>  <molecule>
COc1cc(N2CCN(C[C@H](C)O)CC2)ccc1Nc1ncc2ccc(-c3ccccc3N(C)S(C)(=O)=O)n2n1

>  <concentration at 24 h>
< 30 ng/g

$$$$
